Biological target: RNA-binding protein pos-1 (Caenorhabditis elegans)
Sequence (G5EF15 whole entry, the tested form may be a part): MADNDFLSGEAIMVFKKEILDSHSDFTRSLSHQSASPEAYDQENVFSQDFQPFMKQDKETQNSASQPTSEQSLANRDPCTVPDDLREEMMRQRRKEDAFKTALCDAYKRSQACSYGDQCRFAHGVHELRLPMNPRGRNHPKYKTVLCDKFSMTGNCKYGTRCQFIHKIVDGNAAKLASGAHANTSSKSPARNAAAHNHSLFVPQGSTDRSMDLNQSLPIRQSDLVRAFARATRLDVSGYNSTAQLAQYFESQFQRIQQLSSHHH
Assay: disruptors of C. elegans POS-1 RNA interaction – biochemical, fluorescence polarization, dose response (AID 1964);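 also: purified POS-1 fused to maltose binding protein made in E. coli; potency of compounds blocking POS-1 binding to fluorescent RNA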
Activity calls are given as the source filed them.
Entries and their measured EC50 follow.
quantityMeasured: EC50

# molecule, systemName, result
records = [
    ("CCN(CC)C(=O)c1sc2nc(-c3cccs3)cc(-c3cccs3)c2c1N", "RNA-binding protein pos-1 (Caenorhabditis elegans)", "> 300 µM (not active)"),
    ("Cc1ccc(-c2nc(/C=N/c3ccc(O)cc3)c(O)o2)cc1", "RNA-binding protein pos-1 (Caenorhabditis elegans)", "> 300 µM (not active)"),
    ("CN1C(=O)C(=N)c2c3ccccc3c(O)c3c(Br)ccc1c23", "RNA-binding protein pos-1 (Caenorhabditis elegans)", "0.66 µM (inconclusive)"),
    ("Nc1ccc2c(c1)C/C(=C/c1ccco1)C2=O", "RNA-binding protein pos-1 (Caenorhabditis elegans)", "23 µM (active)"),
    ("CCCCOc1c(Br)cc(/C=N/O)cc1OCC", "RNA-binding protein pos-1 (Caenorhabditis elegans)", "> 300 µM (not active)"),
    ("CN1C(=O)c2cccc3c(N)ccc(c23)C1=O", "RNA-binding protein pos-1 (Caenorhabditis elegans)", "0.363 µM (inconclusive)"),
    ("CC1=CC(C)(C)N2C(=O)C3(C(C#N)=C(N)OC4=C3C(=O)CC(C)(C)C4)c3c(C)c(C)cc1c32 (stereo not given)", "RNA-binding protein pos-1 (Caenorhabditis elegans)", "> 300 µM (not active)"),
    ("COC(=O)c1ccccc1-n1c(CCC(=O)O)ccc1-c1ccc(F)cc1", "RNA-binding protein pos-1 (Caenorhabditis elegans)", "> 300 µM (not active)"),
    ("CCCCOc1cccc(C2C(C(=O)c3ccc(C)o3)=C(O)C(=O)N2c2nnc(C)s2)c1 (stereo not given)", "RNA-binding protein pos-1 (Caenorhabditis elegans)", "102 µM (active)"),
    ("CCCCOc1ccc(/C=C2/Sc3ccccc3C2=O)cc1", "RNA-binding protein pos-1 (Caenorhabditis elegans)", "158 µM (inconclusive)"),
]

----------
Assay: blockade of melanocortin 4 receptor signaling – cell-based, plate reader, cherry pick, counter-screen for LGR2 antagonist project, dose response (AID 743444);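 also: transfected HEK 293 cells stimulated with alpha-MSH peptide; potency of inhibitors of the alpha-MSH evoked signal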
Assay type: functional
Activity calls are given as the source filed them.
quantityMeasured: AC50

# compound, quantityMeasured, result
data = [
    ("Cc1ccccc1S(=O)(=O)N1C[C@@H]2N[C@H](C1)[C@H]2c1ccc(-c2cccc(C#N)c2)cc1", "AC50", "14.3 µM (active)"),
    ("CCC(COC)Oc1cc(NCc2ccccc2)c2ncn(C(C)C)c2c1 (centres undefined)", "AC50", "33.5 µM (active)"),
    ("O=[N+]([O-])c1ccc(Sc2nc3ccccc3o2)c([N+](=O)[O-])c1", "AC50", "28.8 µM (active)"),
    ("COC(=O)c1ccc(NC(=O)CSc2nc3ccc(N4C(=O)C5C6C=CC(C6)C5C4=O)cc3s2)cc1 (centres undefined)", "AC50", "7.79 µM (active)"),
]

----------
Target: FAD-linked sulfhydryl oxidase ALR (Homo sapiens, UniProt P55789)
Sequence (P55789 whole entry): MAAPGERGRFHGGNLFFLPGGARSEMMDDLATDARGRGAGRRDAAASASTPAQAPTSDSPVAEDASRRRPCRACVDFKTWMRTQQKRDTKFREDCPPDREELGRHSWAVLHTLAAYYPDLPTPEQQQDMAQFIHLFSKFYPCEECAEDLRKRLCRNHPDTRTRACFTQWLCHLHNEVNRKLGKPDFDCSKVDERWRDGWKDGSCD
Assay: ALR-catalysed DTT oxidation blockers – biochemical, H2O2 detection, luminescence, cherry-pick, dose response (AID 493248)
Active and inactive are the calls of the source.
quantityMeasured: AC50

# compound, result
records = [
    ("CCc1n[nH]c(C(=O)N2CCCC(Nc3cccc(F)c3)C2)c1C (configuration not stated)", "2.88 µM (active)"),
    ("Cc1ccc(S(=O)(=O)Nc2cc(C)c(O)cc2C)cc1", "3.11 µM (active)"),
    ("Cc1ccc(NC2CCCN(C(=O)c3cn4cc(Cl)ccc4n3)C2)cc1C (configuration not stated)", "1.01 µM (active)"),
    ("Cc1ccc(C(=O)NCCSc2snnc2C)cc1", "0.117 µM (active)"),
    ("CCN(CC)c1ccc(CNc2nc3ccccc3n2CCN2CCCCC2)cc1", "0.68 µM (active)"),
    ("COc1ccccc1C(NC(C)=O)c1c(O)ccc2ccc(O)cc12 (configuration not stated)", "2.44 µM (active)"),
    ("COc1ccc(C2CC(c3ccccc3)=NN2c2ccccc2)c(C(=O)O)c1OC (configuration not stated)", "4.74 µM (active)"),
]

----------
Molecular target: Peroxisome proliferator-activated receptor gamma/Nuclear receptor coactivator 2 (Homo sapiens, UniProt P37231);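 also: agonist potency for raising coactivator recruitment to the receptor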
Sequence (P37231 whole entry): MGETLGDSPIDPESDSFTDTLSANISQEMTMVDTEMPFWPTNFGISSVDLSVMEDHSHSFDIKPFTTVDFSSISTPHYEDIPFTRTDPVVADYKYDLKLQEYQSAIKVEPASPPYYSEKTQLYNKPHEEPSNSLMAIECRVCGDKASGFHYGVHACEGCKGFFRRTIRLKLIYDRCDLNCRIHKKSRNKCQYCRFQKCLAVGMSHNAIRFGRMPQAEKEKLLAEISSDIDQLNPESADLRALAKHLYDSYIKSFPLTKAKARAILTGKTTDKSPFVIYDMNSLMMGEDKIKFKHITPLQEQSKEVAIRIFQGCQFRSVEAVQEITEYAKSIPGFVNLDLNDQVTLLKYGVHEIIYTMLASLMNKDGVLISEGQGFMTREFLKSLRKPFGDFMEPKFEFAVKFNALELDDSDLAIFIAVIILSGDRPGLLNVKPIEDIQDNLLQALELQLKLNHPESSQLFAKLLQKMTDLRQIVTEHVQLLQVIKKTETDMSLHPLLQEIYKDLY
Sequence (Q15596 whole entry, further chain): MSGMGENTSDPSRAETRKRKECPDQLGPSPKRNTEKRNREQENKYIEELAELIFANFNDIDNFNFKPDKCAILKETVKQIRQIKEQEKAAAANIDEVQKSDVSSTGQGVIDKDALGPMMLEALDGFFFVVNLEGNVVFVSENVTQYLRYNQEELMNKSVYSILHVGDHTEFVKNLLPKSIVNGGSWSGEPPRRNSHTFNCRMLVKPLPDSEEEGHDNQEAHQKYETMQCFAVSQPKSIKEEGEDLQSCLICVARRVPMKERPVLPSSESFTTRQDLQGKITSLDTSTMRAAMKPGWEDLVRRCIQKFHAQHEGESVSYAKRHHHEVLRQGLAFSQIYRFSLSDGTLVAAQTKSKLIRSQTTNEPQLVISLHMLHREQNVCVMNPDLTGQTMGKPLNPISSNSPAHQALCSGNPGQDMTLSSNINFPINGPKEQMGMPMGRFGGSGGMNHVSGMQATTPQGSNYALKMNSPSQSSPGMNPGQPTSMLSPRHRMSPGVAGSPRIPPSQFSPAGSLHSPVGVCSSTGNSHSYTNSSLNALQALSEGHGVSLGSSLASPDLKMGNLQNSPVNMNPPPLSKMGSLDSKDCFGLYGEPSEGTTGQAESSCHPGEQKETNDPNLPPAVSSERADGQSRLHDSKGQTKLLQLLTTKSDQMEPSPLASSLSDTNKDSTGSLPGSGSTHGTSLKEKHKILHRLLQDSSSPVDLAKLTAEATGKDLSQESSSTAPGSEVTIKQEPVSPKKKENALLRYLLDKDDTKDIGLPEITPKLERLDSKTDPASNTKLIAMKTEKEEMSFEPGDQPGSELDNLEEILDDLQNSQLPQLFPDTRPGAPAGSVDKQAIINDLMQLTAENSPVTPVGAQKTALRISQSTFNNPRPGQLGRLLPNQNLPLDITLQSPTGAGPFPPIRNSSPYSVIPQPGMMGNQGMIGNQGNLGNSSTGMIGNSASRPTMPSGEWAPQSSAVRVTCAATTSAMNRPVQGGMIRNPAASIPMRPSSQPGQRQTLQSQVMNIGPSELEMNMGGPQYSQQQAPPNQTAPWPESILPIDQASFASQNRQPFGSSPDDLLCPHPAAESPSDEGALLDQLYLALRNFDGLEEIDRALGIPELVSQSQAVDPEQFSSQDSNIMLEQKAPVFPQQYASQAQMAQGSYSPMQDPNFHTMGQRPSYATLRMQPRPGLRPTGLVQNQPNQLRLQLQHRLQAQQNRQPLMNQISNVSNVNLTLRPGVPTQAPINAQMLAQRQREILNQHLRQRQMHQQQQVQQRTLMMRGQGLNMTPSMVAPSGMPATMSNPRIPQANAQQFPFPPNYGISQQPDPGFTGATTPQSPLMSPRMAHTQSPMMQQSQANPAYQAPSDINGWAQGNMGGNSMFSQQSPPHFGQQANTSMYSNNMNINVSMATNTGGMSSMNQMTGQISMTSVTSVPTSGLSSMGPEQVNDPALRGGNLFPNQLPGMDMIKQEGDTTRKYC
Assay type: functional
EC50 values for the compounds below.

# molecularString, EC50
measured = [
    ("Cc1nnc(O)nc1N/N=C/c1cccs1", "> 79.4 µM (not active)"),
    ("CCOC(=O)c1nn(-c2ccc(Cl)cc2)c2nc(-c3ccc(C)cc3)c(C#N)c(=O)n12", "> 79.4 µM (not active)"),
    ("CCOc1ccc(-c2csc(NNC3=NCCCCC3)n2)cc1", "> 79.4 µM (not active)"),
    ("CCOc1nc(-c2ccccc2)ccc1-c1noc(-c2cccs2)n1", "21.2 µM (not active)"),
]

----------
System: Streptococcus sp. 'group A'
Experiment: Streptococcus pyogenes SK(-)GAS viability under kanamycin – luminescence, BacTiterGlo, confirmation, counter-screen for streptokinase expression inhibitor project, dose response (AID 1900)
Assay type: functional, organism-based
Activity calls are given as the source filed them.

# molecularString, systemName, EC50
records = [
    ("COc1ccccc1N=Nc1nc(-c2ccccc2)c(-c2ccccc2)[nH]1", "Streptococcus sp. 'group A'", "1970 nM (active)"),
    ("Cc1oc(C(C)(C)C)cc1C(=O)N1CCN(C(c2ccccc2)c2ccccc2)CC1", "Streptococcus sp. 'group A'", "2640 nM (active)"),
    ("CCCCCCCCCCCCC(NC(C)=O)(C(=O)OCC)C(=O)OCC", "Streptococcus sp. 'group A'", "6450 nM (active)"),
    ("O=C(NNC(=S)NC(=O)c1ccco1)c1ccc(NC(=O)c2ccccc2)cc1", "Streptococcus sp. 'group A'", "973 nM (active)"),
]

----------
Target: Peroxisome proliferator-activated receptor gamma/Nuclear receptor coactivator 3 (Homo sapiens, UniProt P37231);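 also: agonist potency for raising coactivator recruitment to the receptor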
Sequence (P37231 whole entry): as the sequence (P37231 whole entry) above
Sequence (Q9Y6Q9 whole entry, further chain): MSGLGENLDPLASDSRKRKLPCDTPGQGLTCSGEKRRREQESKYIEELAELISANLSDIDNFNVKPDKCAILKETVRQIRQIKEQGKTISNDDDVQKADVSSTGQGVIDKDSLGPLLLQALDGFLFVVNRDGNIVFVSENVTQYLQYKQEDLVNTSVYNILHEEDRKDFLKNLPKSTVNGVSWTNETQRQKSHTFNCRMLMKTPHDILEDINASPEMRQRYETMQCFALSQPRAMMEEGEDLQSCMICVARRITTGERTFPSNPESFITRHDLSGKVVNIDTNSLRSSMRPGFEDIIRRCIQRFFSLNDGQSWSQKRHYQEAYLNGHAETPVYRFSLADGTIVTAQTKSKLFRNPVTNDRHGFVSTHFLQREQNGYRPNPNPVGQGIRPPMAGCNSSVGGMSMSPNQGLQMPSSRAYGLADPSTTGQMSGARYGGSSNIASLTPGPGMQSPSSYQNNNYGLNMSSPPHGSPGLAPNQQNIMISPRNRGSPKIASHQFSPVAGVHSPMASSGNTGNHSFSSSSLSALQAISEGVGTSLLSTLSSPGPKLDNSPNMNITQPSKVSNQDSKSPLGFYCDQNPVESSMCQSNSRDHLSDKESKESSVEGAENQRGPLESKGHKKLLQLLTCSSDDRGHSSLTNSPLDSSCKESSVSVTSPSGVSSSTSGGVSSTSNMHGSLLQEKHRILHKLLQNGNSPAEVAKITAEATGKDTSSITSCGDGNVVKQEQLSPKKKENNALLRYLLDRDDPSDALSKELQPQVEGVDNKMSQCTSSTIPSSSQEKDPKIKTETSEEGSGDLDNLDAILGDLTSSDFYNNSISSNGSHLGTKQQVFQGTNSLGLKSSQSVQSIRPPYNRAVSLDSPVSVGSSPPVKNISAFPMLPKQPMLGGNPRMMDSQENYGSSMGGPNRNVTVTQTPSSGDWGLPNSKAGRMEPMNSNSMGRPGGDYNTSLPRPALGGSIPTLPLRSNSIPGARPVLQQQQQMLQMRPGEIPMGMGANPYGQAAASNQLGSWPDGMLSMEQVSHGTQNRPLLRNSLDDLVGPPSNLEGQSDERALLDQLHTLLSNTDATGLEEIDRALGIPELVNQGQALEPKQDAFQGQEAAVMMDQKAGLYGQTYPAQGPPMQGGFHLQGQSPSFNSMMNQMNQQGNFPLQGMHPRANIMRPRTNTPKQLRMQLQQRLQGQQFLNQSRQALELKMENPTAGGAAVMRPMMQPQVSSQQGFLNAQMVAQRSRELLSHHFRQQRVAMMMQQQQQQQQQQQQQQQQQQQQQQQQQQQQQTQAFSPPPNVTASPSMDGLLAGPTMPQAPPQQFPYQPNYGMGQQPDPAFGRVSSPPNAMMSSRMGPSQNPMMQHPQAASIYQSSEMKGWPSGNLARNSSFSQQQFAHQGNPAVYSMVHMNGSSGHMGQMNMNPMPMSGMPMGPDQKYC
Type: functional

# molecularString, EC50
measured = [
    ("CCOc1ccc(-c2csc(NNC3=NCCCCC3)n2)cc1", "> 79.4 µM (not active)"),
    ("CCOC(=O)c1nn(-c2ccc(Cl)cc2)c2nc(-c3ccc(C)cc3)c(C#N)c(=O)n12", "> 79.4 µM (not active)"),
    ("CCOc1nc(-c2ccccc2)ccc1-c1noc(-c2cccs2)n1", "29.6 µM (not active)"),
    ("Cc1nnc(O)nc1N/N=C/c1cccs1", "> 79.4 µM (not active)"),
]

----------
Molecular target: Corticotropin-releasing factor receptor 2/Corticotropin-releasing factor-binding protein (Homo sapiens, UniProt P24387+Q13324)
Assay: Dose Response confirmation of uHTS hits for small molecule antagonists of the CRF-binding protein and CRF-R2 receptor complex.
Format: functional
Conditions: read-out: IC50_Mean
Active and inactive are the calls of the source.
Outcomes: active, inactive

# molecule, assignedCategory
rows = [
    ("Cc1ccc(CN2CC(=O)N3[C@H]4c5cc(Cl)ccc5OC[C@@H]4[C@H](c4ccccc4)[C@]3(C)C2=O)cc1", "inactive"),
    ("Cc1ccc(SCc2noc(-c3c(C)noc3C)n2)cc1", "active"),
    ("O=C(Nc1cccc2ccccc12)N1CC=CCC1", "active"),
    ("CCOC(=O)N1CCN(C(=O)c2ccc3nc(SCc4ccc(F)cc4)n(C)c3c2)CC1", "inactive"),
    ("Cc1cc(=O)[nH]c(SCC(=O)Nc2ccc(Br)cc2)c1C#N", "active"),
    ("Cc1[nH]c2ccccc2c1SCc1nnc(SCc2ccccc2)n1C", "inactive"),
    ("Cc1c(Cl)c([N+](=O)[O-])nn1CC(=O)NC1CCCCC1", "inactive"),
    ("O=C(NCCc1cn[nH]c1)C1CCC(=O)N(CCc2cccc(F)c2)C1 (stereo not given)", "inactive"),
    ("Cc1ccc(S(=O)(=O)Nc2ccc3cc([N+](=O)[O-])ccc3c2[N+](=O)[O-])cc1", "active"),
    ("CCn1nc(C)c(NC(=O)Nc2cccc(Cl)c2Cl)c1C", "active"),
]

----------
Activity calls are given as the source filed them.
Estrogen receptor beta (Homo sapiens) measurements of IC50, listed per entry.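 Also: recombinant ER-beta bound to coactivator SRC1 peptide in presence of estradiol agonist; inhibitors block coactivator peptide binding and lower the FRET signal.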
Sequence (Q92731 whole entry): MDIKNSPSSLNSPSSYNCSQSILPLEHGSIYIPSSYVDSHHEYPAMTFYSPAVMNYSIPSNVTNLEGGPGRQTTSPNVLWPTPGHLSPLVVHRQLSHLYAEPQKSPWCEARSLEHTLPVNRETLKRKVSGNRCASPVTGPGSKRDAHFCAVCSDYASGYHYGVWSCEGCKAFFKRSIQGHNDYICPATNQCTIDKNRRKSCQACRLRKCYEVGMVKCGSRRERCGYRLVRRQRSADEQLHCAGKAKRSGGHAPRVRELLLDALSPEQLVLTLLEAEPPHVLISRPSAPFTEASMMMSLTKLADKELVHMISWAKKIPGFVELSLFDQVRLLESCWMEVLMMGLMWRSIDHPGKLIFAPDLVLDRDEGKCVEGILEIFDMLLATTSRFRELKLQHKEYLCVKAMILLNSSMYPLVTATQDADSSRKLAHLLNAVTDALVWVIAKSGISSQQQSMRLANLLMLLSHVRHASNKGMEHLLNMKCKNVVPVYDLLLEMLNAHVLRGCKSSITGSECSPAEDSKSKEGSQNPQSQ

# compound, IC50
rows = [
    ("CSCCC(NC(=O)c1ccco1)C(=O)OCC(=O)Nc1sccc1C#N (centres undefined)", "16.5 µM (active)"),
    ("CC12CCC(=O)N1C(C(=O)OCC(=O)Nc1sccc1C#N)CS2 (centres undefined)", "14.4 µM (active)"),
    ("Cc1nc2cc(-c3ccsc3-n3c(C)ccc3C)nn2c(O)c1Cl", "7.66 µM (active)"),
    ("C/N=C1\\SC(CC(=O)Nc2ccc(C(C)=O)cc2)C(=O)N1C (centres undefined)", "> 50 µM (not active)"),
]
